# EXPERIMENTAL_TARGET: Trp-p8 (Homo sapiens, UniProt Q7Z2W7, T58I)
# Construct: expressed in transfected cells; host or cells: CHO (Chinese Hamster Ovary) cells
# Sequence (Q7Z2W7 whole entry T58I): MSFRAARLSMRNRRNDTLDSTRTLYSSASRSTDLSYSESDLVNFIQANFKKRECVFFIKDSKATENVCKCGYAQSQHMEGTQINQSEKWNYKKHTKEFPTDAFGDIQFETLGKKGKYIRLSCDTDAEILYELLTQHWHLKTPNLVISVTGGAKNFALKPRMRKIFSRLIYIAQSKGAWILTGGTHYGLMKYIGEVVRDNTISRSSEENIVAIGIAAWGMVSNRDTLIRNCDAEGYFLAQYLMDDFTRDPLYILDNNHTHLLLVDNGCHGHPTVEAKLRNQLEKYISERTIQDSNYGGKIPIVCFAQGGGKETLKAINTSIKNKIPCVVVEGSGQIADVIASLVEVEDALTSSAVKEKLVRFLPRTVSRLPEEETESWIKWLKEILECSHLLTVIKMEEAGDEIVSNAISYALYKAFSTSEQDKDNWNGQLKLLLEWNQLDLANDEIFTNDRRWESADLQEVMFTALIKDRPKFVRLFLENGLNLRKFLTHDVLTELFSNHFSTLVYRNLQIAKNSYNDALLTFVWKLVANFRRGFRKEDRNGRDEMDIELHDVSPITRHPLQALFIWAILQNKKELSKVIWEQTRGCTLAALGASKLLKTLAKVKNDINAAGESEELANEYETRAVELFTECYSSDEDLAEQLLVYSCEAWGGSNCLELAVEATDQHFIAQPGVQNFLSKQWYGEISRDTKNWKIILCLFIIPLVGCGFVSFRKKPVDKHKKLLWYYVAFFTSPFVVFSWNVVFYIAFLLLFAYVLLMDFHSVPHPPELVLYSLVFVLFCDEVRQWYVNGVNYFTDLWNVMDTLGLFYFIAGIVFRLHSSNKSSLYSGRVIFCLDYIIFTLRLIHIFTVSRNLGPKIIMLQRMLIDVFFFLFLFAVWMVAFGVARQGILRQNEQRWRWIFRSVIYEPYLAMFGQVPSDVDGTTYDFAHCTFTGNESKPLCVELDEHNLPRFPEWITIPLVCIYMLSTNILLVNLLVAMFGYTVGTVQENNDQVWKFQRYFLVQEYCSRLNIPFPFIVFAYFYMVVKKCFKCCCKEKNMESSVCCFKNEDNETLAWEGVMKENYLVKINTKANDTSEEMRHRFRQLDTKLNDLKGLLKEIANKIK
# TEST_SUMMARY: ATP viability assay with CHO/Trp-p8 cells at 37° C.
# Type: cell-based
# CONDITION_LABEL: Table 5, Formula I-E; CHO/Trp-p8 cells, 24-26 hours at 37° C., 50% reduction in relative cell viability; read-out: EC50
pEC50: −log10 of the molar value.
Give measured pEC50 for each item. Keep answers brief.

Solved entries (count: 5):
The reported value for "CC(C)[C@@H]1CC[C@@H](C)C[C@H]1C(=O)n1c(=O)n(CCN)c2ncccc21" in terms of pEC50 is 7.30 to 7.68

The reported value for "CC(C)[C@@H]1CC[C@@H](C)C[C@H]1C(=O)n1c(=O)n(CCCN)c2ccccc21" in terms of pEC50 is 7.30 to 7.68

The reported value for "CC(C)[C@@H]1CC[C@@H](C)C[C@H]1C(=O)n1c(=O)n(CCN)c2cc(C(=O)NCCc3ccccc3)ccc21" in terms of pEC50 is 7.00 to 7.29

The reported value for "CC(C)[C@@H]1CC[C@@H](C)C[C@H]1C(=O)n1c(=O)n(CCN)c2cc(C(=O)Nc3ccncc3)ccc21" in terms of pEC50 is 7.30 to 7.68

The reported value for "CC(C)[C@@H]1CC[C@@H](C)C[C@H]1C(=O)n1c(=O)n(CCN)c2cc(C(N)=O)ccc21" in terms of pEC50 is > 7.70

Hi! Can you tell me pEC50 for each of these compounds?
1. CC(C)[C@@H]1CC[C@@H](C)C[C@H]1C(=O)n1c(=O)n(CCN)c2ccncc21
2. CNCCn1c(=O)n(C(=O)[C@@H]2C[C@H](C)CC[C@H]2C(C)C)c2ccccc21

stdout:
1. 7.30 to 7.68
2. 7.30 to 7.68
